# Lookup of reported ID50 keyed by entry
ASSAY_SYSTEM: DNA topoisomerase II (Homo sapiens) (UniProt P11388+Q02880)
PROTOCOL_DETAILS: Evaluated for the inhibition of human DNA Topoisomerase II
Format: protein assay
ENDPOINT_LABEL: ID50

COc1cc([C@@H]2c3cc4c(cc3[C@@H](Nc3ccc(Cl)cc3)[C@H]3COC(=O)[C@H]23)OCO4)c(Cl)c(OC)c1O > 100 µM
COc1cc([C@@H]2c3cc4c(cc3[C@@H](O)[C@H]3COC(=O)[C@H]23)OCO4)c(Cl)c(OC)c1O > 50 µM
COc1cc([C@@H]2c3cc4c(cc3[C@@H](Nc3ccc5c(c3)OCO5)[C@H]3COC(=O)[C@H]23)OCO4)c(Cl)c(OC)c1O > 100 µM
COc1cc([C@@H]2c3cc4c(cc3[C@@H](Nc3cccc([N+](=O)[O-])c3)[C@H]3COC(=O)[C@H]23)OCO4)c(Cl)c(OC)c1O > 100 µM
COc1cc([C@@H]2c3cc4c(cc3[C@@H](Nc3ccc5c(c3)OCCO5)[C@H]3COC(=O)[C@H]23)OCO4)c(Cl)c(OC)c1O > 100 µM
COc1cc([C@@H]2c3cc4c(cc3[C@@H](Nc3ccc(F)cc3)[C@H]3COC(=O)[C@H]23)OCO4)c(Cl)c(OC)c1O > 100 µM
COc1cc([C@@H]2c3cc4c(cc3[C@@H](O[C@@H]3O[C@@H]5CO[C@@H](C)O[C@H]5[C@H](O)[C@H]3O)[C@H]3COC(=O)[C@H]23)OCO4)c(Cl)c(OC)c1O > 50 µM
COc1cc([C@@H]2c3cc4c(cc3[C@@H](Nc3cccc(O)c3)[C@H]3COC(=O)[C@H]23)OCO4)c(Cl)c(OC)c1O > 100 µM
COc1cc([C@@H]2c3cc4c(cc3[C@@H](Nc3ccc(Br)cc3)[C@H]3COC(=O)[C@H]23)OCO4)c(Cl)c(OC)c1O > 100 µM
COc1cc([C@@H]2c3cc4c(cc3[C@@H](Nc3ccc5c(c3)OCO5)[C@H]3COC(=O)[C@H]23)OCO4)cc(OC)c1O 10 µM
